Where do the numbers come from? From paper PMC4550849.

Test: in vitro
Details: rhesus monkey
METRIC_NAME: CC50

Reported CC50, compound `CCN(CC)Cc1cc(Nc2ccnc3cc(Cl)ccc23)ccc1O` : ____
> 100 µM

----------
The following molecules are shown together with reported CC50 values.
Experiment: in vitro
Details: human, CC50
// note: answer is a bare numeric in µM

Answered cases to consult:
1) CCN(CC)CCCC(C)Nc1ccnc2cc(Cl)ccc12 (stereo not shown) [CQ, Chloroquine]; 100
2) CCNCc1cc(Nc2ccnc3cc(Cl)ccc23)ccc1O [DEAQ, Desethyl-Amodiaquine]; 50
3) CCN(CC)Cc1cc(Nc2ccnc3cc(Cl)ccc23)ccc1O [AQ, Amodiaquine]; 50

Here's the next entry for you.
Reported CC50, molecule CCNCCCC(C)Nc1ccnc2cc(Cl)ccc12 (stereo not shown) [DECQ, Desethyl-Chloroquine] : ____
100

----------
System: HeLa cells
Details: human
METRIC_NAME: CC50

Reported CC50, molecule `CCN(CC)Cc1cc(Nc2ccnc3cc(Cl)ccc23)ccc1O` : ____
> 50 µM

----------
Target: purified human cathepsin B (Homo sapiens)
Assay type: biochemical
Conditions: 4, 8, 16, 33, or 66 μM; without pre-incubation; pH 5.8
METRIC_NAME: inhibition of purified human cathepsin B activity

1) CCNCCCC(C)Nc1ccnc2cc(Cl)ccc12 (stereo not shown) [DECQ, Desethyl-Chloroquine]; weaker inhibitors
2) CCN(CC)CCCC(C)Nc1ccnc2cc(Cl)ccc12 (stereo not shown) [CQ, Chloroquine]; weaker inhibitors

----------
Test system: Human Cytomegalovirus (CMV, Strain AD169)
Experiment: microbe, parasite or virus in culture
Format: cell-based
Conditions: Human betaherpesvirus 5, AD169, HFF, 336 h
pEC50: −log10 of the molar value.
METRIC_NAME: pEC50

Reported pEC50, molecule CCN(CC)Cc1cc(Nc2ccnc3cc(Cl)ccc23)ccc1O [AQ, Amodiaquine] : ____
< 4.22

----------
Tested on: Junin (JUNV)
Assay: microbe, parasite or virus in culture
Assay type: cell-based, Junin virus
Settings: Mammarenavirus juninense
METRIC_NAME: pEC50
The value called pEC50 is obtained by taking minus log10 of the concentration in mol/L.

1. CCN(CC)Cc1cc(Nc2ccnc3cc(Cl)ccc23)ccc1O [AQ, Amodiaquine]; 4.77

Reported pEC50, compound CCNCc1cc(Nc2ccnc3cc(Cl)ccc23)ccc1O [DEAQ, Desethyl-Amodiaquine] : ____
4.86

----------
Test system: RAW264.7 cells treated with Pseudomonas aeruginosa Exotoxin A
Test: cells
Type: cell-based
Conditions: Mus musculus, RAW264.7, 6 h
pEC50: −log10 of the molar value.
METRIC_NAME: pEC50

Reported pEC50, compound CCN(CC)Cc1cc(Nc2ccnc3cc(Cl)ccc23)ccc1O [AQ, Amodiaquine] : ____
< 4.18
